// provenance: paper PMC6230509

- measurement_target: UniProtKB P35348
- Sequence (P35348 whole entry): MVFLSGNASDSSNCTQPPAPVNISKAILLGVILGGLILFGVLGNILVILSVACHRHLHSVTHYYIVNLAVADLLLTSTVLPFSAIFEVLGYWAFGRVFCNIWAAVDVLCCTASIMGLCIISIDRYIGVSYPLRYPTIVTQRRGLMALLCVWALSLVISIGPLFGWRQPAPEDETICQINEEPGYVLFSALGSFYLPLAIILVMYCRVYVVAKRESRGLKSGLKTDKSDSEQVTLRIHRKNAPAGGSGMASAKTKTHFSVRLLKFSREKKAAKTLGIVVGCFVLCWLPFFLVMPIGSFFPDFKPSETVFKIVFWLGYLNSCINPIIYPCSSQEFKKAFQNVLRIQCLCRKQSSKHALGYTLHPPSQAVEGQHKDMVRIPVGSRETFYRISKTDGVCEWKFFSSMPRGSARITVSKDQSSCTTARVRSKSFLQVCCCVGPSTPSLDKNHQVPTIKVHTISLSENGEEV
- assay_protocol: NIMH PDSP radioligand competition binding, α1A
test_readout: Ki (nM)
// return numeric value only (unit: nM, not printed)

Known results for compounds:
C=CCN(CC=C)CCc1c(-c2ccccc2)[nH]c2ccccc12 [2-Ph-DALT, 2-phenyl-N,N-diallyltryptamine]
75
C=CCN(CC=C)CCc1c(C)[nH]c2ccc(F)cc12 [5-F-2-Me-DALT, 5-fluoro-2-methyl-N,N-diallyltryptamine]
1570

// next entry
Task item: Supply measured Ki of C=CCN(CC=C)CCc1c(C)[nH]c2ccc(OC)cc12 [5-MeO-2-Me-DALT, 5-methoxy-2-methyl-N,N-diallyltryptamine] in your reply.
Reply: 1200
